- assaySystem: CAPON (NOS1AP), recombinant, C-terminal His tag (Homo sapiens, UniProt O75052)
- Sequence (O75052 whole entry): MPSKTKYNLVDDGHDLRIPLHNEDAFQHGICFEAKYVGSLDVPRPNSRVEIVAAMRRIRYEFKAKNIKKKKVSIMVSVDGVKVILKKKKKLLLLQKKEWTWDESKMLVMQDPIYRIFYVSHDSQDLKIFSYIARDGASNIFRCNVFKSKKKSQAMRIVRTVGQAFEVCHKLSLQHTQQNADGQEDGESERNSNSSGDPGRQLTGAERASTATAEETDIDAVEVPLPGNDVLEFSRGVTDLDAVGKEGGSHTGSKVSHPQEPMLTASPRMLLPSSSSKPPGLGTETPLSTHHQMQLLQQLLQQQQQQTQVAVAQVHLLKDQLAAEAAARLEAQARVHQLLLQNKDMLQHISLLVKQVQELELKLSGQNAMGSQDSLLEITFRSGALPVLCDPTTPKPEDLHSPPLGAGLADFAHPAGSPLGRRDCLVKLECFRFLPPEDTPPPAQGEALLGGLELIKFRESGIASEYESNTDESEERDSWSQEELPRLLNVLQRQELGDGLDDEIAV
- experimentalProtocol: microscale thermophoresis
assayReadout: Kd (µM)

>>> assayresult("COc1ccc(NC(=O)c2ccco2)cc1NC(=O)c1cc2ccccc2cc1OC")
74

Source of measurements: paper doi:10.1101/2025.11.05.686689v1
